testTarget: human M4 muscarinic acetylcholine receptor (Homo sapiens)
assayMethodText: human FLIPR-based M4 PAM assay, CHO-K1 cells stably transfected with human M4 receptor and chimeric G-protein Gαqi5
measurementSetup: inflection point (IP) of dose response curve; acetylcholine added at 20% of maximum response; CHO-K1 human M4/Gαqi5, FLIPR Tetra
pEC50: −log10 of the molar value.
measuredAttribute: pEC50

Record excerpt, results attached:
molecule=Cc1c(Cl)nc(CO)nc1N1CC[C@@H](Oc2ccc3[nH]ncc3c2)[C@@H](F)C1 recordedvalue=7.70
molecule=COc1ccc(OC2CCN(c3nc(C(=O)N[C@@H]4CCCc5ccccc54)nc(Cl)c3C)CC2)cn1 recordedvalue=5.47
molecule=COc1ccc(OC2CCN(c3ncnc(N4CC5(COC5)C4)c3C)CC2)cn1 recordedvalue=5.68
molecule=Cc1c(C#N)nc(CO)nc1N1CCC(Oc2ccc3c(c2)C(=O)OC3)CC1 recordedvalue=5.59

P. Cc1cc(C(=O)NC2C3CC2C3)nnc1N1CCC(Oc2ccc3c(c2)C(=O)N(C)C3)CC1 (stereo not shown)
Q. Cc1ncc(C)c(N2CCC(Oc3ccc(OCCO)nc3)CC2)n1
Would you mind telling me which has the lower recorded pEC50 between P and Q ? Identify your pick by its label.
P

---

testTarget: human M4 muscarinic acetylcholine receptor (Homo sapiens, UniProt P08173)
Sequence (P08173 whole entry): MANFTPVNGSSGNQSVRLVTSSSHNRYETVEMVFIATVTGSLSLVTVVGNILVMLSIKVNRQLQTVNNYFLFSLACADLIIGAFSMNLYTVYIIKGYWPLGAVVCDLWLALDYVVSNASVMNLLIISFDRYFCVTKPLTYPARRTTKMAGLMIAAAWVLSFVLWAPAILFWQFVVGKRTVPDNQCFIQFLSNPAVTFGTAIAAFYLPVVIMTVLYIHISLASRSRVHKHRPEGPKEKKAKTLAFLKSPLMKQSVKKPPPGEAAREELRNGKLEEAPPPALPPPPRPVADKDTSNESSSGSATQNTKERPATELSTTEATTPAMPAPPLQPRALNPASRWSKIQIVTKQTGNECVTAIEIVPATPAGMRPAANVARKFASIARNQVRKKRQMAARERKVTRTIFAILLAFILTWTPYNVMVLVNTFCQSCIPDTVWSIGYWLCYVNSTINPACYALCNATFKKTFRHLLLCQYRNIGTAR
assayMethodText: human FLIPR-based M4 PAM assay, CHO-K1 cells stably transfected with human M4 receptor and chimeric G-protein Gαqi5
measurementSetup: inflection point (IP) of dose response curve; acetylcholine added at 20% of maximum response; CHO-K1 human M4/Gαqi5, FLIPR Tetra
Description: In a typical experiment the M4 muscarinic acetylcholine receptor modulating activity of the compounds of the present invention was determined in accordance with the following experimental method. […] Following dye loading the cell plates are placed in a FLIPR Tetra instrument and while monitoring dye fluorescence (excitation […]), 10 uL of test substance at increasing concentrations is added, and fluorescence values are recorded for 4 min. […]
measuredAttribute: EC50 (nM)

Answered cases to consult:
compound="COc1ccc(O[C@@H]2CCN(c3nnc(C(=O)N[C@H]4CCc5ncccc5C4)cc3C)C[C@@H]2F)cn1 [Example 138A]" measuredattribute=EC50 unitssymbol=nM recordedvalue=177
compound=COc1ccc(OC2CCN(c3nnc(C(=O)NCCn4ccnc4)cc3C)CC2)cn1 measuredattribute=EC50 unitssymbol=nM recordedvalue=306
compound=Cc1nc(Cl)c(C)c(N2CCC(Oc3ccc4c(cnn4C)c3)CC2)n1 measuredattribute=EC50 unitssymbol=nM recordedvalue=60

A. COc1ccc(OC2CCN(c3nnc(C(=O)NC4Cc5ccccc5C4)cc3C)CC2)cn1
B. COc1ccc(OC2CCN(c3ncnc(Cl)c3C)CC2)cn1
Looking only at measured EC50, which entry is lower, A or B ? Output the label that corresponds to your choice.
B

---

testTarget: UniProt:P08173
assayMethodText: human FLIPR-based M4 PAM assay, CHO-K1 cells stably transfected with human M4 receptor and chimeric G-protein Gαqi5
measurementSetup: inflection point (IP) of dose response curve; acetylcholine added at 20% of maximum response; CHO-K1 human M4/Gαqi5, FLIPR Tetra
pEC50: −log10 of the molar value.
measuredAttribute: pEC50

Reference set, count: 5
compound="Cc1c(Cl)nc(CO)nc1N1CCC(Oc2ccc3c(c2)C(=O)CCO3)CC1 [Example 21]" measuredattribute=pEC50 recordedvalue=7.24
compound="COc1ccc(OC2CCN(c3nc(C#N)c(C(N)=O)cc3C)CC2)cn1 [Example 112]" measuredattribute=pEC50 recordedvalue=7.39
compound="Cc1c(Cl)nc(CO)nc1N1CCC(Oc2ccc3c(c2)COC3)CC1 [Example 94]" measuredattribute=pEC50 recordedvalue=7.47
compound="COc1ccc(OC2CCN(c3nnc(C(=O)Nc4cccnc4)cc3C)CC2)cn1 [Example 137]" measuredattribute=pEC50 recordedvalue=6.76
compound="Cc1cc(C(=O)N[C@H]2CCc3ncccc3C2)nnc1N1CCC(Oc2cccc(C#N)c2)CC1 [Example 130A]" measuredattribute=pEC50 recordedvalue=6.90

1. COc1ccc(OC2CCN(c3ncnc(N4CC(F)(F)C4)c3C)CC2)cn1 [Example 236]
2. Cc1cc(C(=O)NC2CCc3cnccc3C2)nnc1N1CCC(Oc2cccc(C#N)c2)CC1 (stereo not shown) [Example 172]
Hello, I am sorting some records. Could you say if 1 or 2 has the smaller pEC50 value? // output: label of the selected item
2
(2: 6.29, 1: 6.64)
